// Ki collected for Sodium-dependent serotonin transporter (Homo sapiens, UniProt P31645)
All answers are understood in nM, so give the number only.

CNCC[C@H](Oc1ccc(O)c2ccccc12)c1cccs1 :: 63.9
CNCC[C@H](Oc1cccc2c(O)cccc12)c1cccs1 :: 9.6
CNCC[C@H](Oc1cccc2cc(O)ccc12)c1cccs1 :: 1.06

// next entry
Request: Consider the compound CNCC[C@H](Oc1cccc2c(OC)c(O)ccc12)c1cccs1 and give its measured Ki.
Response: 3.66

---

Measured Ki by item
biological target: Sodium-dependent noradrenaline transporter (Homo sapiens, UniProt P23975); test: Ability to inhibit [3H]nisoxetine binding to cloned human norepinephrine (NE) transporter; Average of two experiments
Sequence (P23975 whole entry): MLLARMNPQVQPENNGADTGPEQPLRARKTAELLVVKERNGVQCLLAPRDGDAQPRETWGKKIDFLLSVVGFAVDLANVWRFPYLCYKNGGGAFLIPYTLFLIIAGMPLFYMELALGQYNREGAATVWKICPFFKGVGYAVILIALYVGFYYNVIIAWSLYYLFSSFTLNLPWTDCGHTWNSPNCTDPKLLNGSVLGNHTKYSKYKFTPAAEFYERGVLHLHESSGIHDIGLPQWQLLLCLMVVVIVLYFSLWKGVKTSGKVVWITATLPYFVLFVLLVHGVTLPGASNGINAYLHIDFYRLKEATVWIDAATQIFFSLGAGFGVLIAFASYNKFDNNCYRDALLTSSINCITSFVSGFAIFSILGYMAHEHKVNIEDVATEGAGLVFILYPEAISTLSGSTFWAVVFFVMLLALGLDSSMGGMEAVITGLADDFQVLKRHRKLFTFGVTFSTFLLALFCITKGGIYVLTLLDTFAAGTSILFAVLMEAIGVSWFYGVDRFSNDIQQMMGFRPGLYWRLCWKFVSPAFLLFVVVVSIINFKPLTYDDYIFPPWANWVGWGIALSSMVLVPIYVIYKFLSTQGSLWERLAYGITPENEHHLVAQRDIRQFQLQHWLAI
All answers are understood in nM, so give the number only.

CNCC[C@H](Oc1cccc2c(O)cccc12)c1cccs1 :: 18.4
CNCC[C@H](Oc1cccc2cc(O)ccc12)c1cccs1 :: 4.72
CNCC[C@H](Oc1cccc2c(OC)c(O)ccc12)c1cccs1 :: 235

// next entry
Request: Consider the molecule CNCC[C@H](Oc1ccc(O)c2ccccc12)c1cccs1 and give its measured Ki.
Response: 97.1

---

molecular target: Sodium-dependent serotonin transporter (Homo sapiens, UniProt P31645)
Sequence (P31645 whole entry): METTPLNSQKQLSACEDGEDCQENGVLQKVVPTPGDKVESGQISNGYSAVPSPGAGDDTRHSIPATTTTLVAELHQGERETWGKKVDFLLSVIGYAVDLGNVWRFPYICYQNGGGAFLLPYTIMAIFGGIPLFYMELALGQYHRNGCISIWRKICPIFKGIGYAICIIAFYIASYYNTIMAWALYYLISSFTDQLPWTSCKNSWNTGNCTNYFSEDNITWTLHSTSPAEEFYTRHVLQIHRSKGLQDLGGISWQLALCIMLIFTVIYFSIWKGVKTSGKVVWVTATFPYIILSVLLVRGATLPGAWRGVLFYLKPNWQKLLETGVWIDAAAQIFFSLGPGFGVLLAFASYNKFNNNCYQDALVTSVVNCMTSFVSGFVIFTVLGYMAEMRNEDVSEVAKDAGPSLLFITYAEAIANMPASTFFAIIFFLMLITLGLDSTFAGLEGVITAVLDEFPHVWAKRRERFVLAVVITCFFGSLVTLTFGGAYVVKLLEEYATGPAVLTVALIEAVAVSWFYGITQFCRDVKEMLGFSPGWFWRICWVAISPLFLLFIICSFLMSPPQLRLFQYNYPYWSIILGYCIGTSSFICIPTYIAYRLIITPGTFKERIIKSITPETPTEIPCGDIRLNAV
endpoint-label: Ki (µM)
All answers are understood in µM, so give the number only.

CNCC[C@H](Oc1cccc2c(OS(=O)(=O)O)c(OC)ccc12)c1cccs1 :: 3.12

// next entry
Request: Consider the compound CNCC[C@H](Oc1cccc2c(O)c(OC)ccc12)c1cccs1 and give its measured Ki.
Response: 0.266

---

biological target: Sodium-dependent dopamine transporter (Homo sapiens, UniProt Q01959)
Sequence (Q01959 whole entry): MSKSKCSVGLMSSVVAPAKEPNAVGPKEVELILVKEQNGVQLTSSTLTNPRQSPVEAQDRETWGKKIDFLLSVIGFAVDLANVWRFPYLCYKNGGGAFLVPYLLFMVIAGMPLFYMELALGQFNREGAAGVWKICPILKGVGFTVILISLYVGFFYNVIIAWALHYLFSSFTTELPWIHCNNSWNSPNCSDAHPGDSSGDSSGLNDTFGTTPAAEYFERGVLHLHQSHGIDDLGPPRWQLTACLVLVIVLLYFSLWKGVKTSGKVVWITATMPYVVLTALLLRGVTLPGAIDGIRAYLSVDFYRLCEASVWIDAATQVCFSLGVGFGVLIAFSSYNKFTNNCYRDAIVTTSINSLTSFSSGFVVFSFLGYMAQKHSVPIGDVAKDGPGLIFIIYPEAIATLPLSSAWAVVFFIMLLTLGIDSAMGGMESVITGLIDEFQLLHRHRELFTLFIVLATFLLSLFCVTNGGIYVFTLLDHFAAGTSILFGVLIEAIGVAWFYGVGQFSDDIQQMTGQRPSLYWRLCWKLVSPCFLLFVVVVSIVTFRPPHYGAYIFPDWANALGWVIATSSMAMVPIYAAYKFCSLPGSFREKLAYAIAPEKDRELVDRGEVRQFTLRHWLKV
endpoint-label: Ki (nM)
All answers are understood in nM, so give the number only.

Field: example entries. Status: answers known.
CNCC[C@H](Oc1cccc2c(OC)c(O)ccc12)c1cccs1 :: 353
CNCC[C@H](Oc1cccc2cc(O)ccc12)c1cccs1 :: 163
CNCC[C@H](Oc1cccc2c(O)cccc12)c1cccs1 :: 241

Request: What is its Ki for Sodium-dependent dopamine transporter (Homo sapiens, UniProt Q01959)? Entry: CNCC[C@H](Oc1ccc(O)c2ccccc12)c1cccs1
Response: 130

---

biological target: Sodium-dependent noradrenaline transporter (Homo sapiens)
endpoint-label: pKi
Note on pKi: it is the negative log10 of concentration, concentration in mol/L.

CNCC[C@H](Oc1cccc2c(O)c(O)ccc12)c1cccs1 (stereo in doubt; form 2) :: 6.16

Request: Consider the compound CNCC[C@H](Oc1cccc2c(O)c(OC)ccc12)c1cccs1 and give its measured pKi.
Response: 6.04

Request: And what about the compound CNCC[C@H](Oc1cccc2cc(O[C@@H]3O[C@H](C(=O)O)[C@@H](O)[C@H](O)[C@H]3O)ccc12)c1cccs1 ?
Response: 5.26

Request: And what about the compound CNCC[C@H](Oc1cccc2c(O)c(O)ccc12)c1cccs1 (stereo in doubt; form 1) ?
Response: 6.26

---

// Ki collected for Sodium-dependent serotonin transporter (Homo sapiens)

Field: example entries. Status: answers known.
CNCC[C@H](Oc1cccc2c(O[C@@H]3O[C@H](C(=O)O)[C@@H](O)[C@H](O)[C@H]3O)c(O[C@@H]3O[C@H](C(=O)O)[C@@H](O)[C@H](O)[C@H]3O)ccc12)c1cccs1 :: > 10000 nM
CNCC[C@H](Oc1cccc2c(O)c(O)ccc12)c1cccs1 (stereo in doubt; form 2) :: 120 nM
CNCC[C@H](Oc1cccc2cc(O[C@@H]3O[C@H](C(=O)O)[C@@H](O)[C@H](O)[C@H]3O)ccc12)c1cccs1 :: 1460 nM

// next entry
Request: What is its Ki for Sodium-dependent serotonin transporter (Homo sapiens)? Entry: CNCC[C@H](Oc1cccc2c(O)c(O)ccc12)c1cccs1 (stereo in doubt; form 1)
Response: 31.7 nM

---

Measured pKi by item
biological target: Sodium-dependent dopamine transporter (Homo sapiens, UniProt Q01959); test: Ability to inhibit [3H]mazindol binding to cloned human dopamine (DA) transporter
Note on pKi: it is the negative log10 of concentration, concentration in mol/L.

CNCC[C@H](Oc1cccc2c(O)c(OC)ccc12)c1cccs1 :: 5.55

// next entry
Request: Consider the compound CNCC[C@H](Oc1cccc2c(O)c(O)ccc12)c1cccs1 (stereo in doubt; form 2) and give its measured pKi.
Response: 5.14
